tested on: MOLM1 and UCSD/AML1 (averaged); test: cell viability relative to DMSO control (POC); higher = less growth inhibition; conditions: 1 µM; 72 h
Screen size: about 2,100 compounds; about 180 (8.6%) showed an effect of 50% or more. The sample as a whole holds a higher share of strong results than the screen did.
Assay endpoint: cell viability (%)
# output: bare number, implied unit %

Query: Identify measured cell viability corresponding to COc1ccc2c(c1)OC1(O)COc3cc(OC)c(OC)cc3C1=C2 (stereo not drawn)
Reply: 102

Query: Give the reported cell viability for this molecule. COc1cc(OC)c2c(=O)c(-c3ccc4c(c3)OCO4)coc2c1
Reply: 127

Query: Please list cell viability recorded for the molecule COc1ccc([C@@H]2CC(=O)c3c(O)cc(O[C@@H]4O[C@H](CO[C@@H]5O[C@@H](C)[C@H](O)[C@@H](O)[C@H]5O)[C@@H](O)[C@H](O)[C@H]4O)cc3O2)cc1O
Reply: 92.8

Query: // fetch cell viability given entry C[C@@H]1CC[C@@]23CCC4(C)[C@@](C=CC5[C@@]6(C)CCC(=O)C(C)(C)C6CC[C@]54C)(OC2=O)C3[C@H]1C (stereo partly drawn)
Reply: 95.6

Query: For the molecule O[C@H]1[C@H](O)[C@@H](O)C2OC[C@H]1O2 , report cell viability.
Reply: 110

Query: Identify cell viability associated with the molecule O=c1c(O)c(-c2ccccc2)oc2cccc(O)c12
Reply: 93.1

Query: Look up and state reported cell viability for C[C@H]1[C@H](C)CC[C@]2(CO)CC[C@]3(C)C(=CC[C@@H]4[C@@]5(C)CC[C@H](O)C(C)(C)[C@@H]5CC[C@]43C)[C@H]12
Reply: 110

Query: Query cell viability for COc1c(-c2coc3cc4c(cc3c2=O)CC(OC(C)=O)C(C)(C)O4)ccc2c1C=CC(C)(C)O2 (stereo not drawn)
Reply: 88.7
